Below, each entry is listed alongside its reported IC50.
Biological target: Human Factor XIIa (Homo sapiens)
Construct: purchased Enzyme Research Laboratories
Sequence (P00748 373-615 limits assumed): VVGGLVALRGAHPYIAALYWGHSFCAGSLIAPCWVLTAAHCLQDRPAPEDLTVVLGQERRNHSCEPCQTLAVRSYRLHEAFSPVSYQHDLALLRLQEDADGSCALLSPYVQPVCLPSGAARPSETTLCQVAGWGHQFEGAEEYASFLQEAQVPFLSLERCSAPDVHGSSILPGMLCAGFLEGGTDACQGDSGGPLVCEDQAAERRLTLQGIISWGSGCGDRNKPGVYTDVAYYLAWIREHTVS
Experiment: Factor XIIa inhibitory activity in vitro (fluorogenic substrate H-DPro-Phe-Arg-AFC)
Format: biochemical
Conditions: 25° C., class symbols, read-out: Human FXIIa IC50
Measurement name: IC50

Smiles str	Measurement name	Data value
N[C@H](CCCCN1CCCCC1)C(=O)N[C@@H](Cc1ccc(F)c(F)c1)C(=O)NCc1cnc2[nH]cc(Cl)c2c1	IC50	0.03 to 0.1 µM
CN(C)[C@H](CCc1ccccc1)C(=O)N[C@@H](Cc1ccc(F)c(F)c1)C(=O)NCc1ccc2c(N)nccc2c1	IC50	10 to 40 µM
Nc1nccc2cc(CNC(=O)[C@H](Cc3ccc(F)c(F)c3)NC(=O)c3cc(F)cc(F)c3)ccc12	IC50	10 to 40 µM
COc1ccc(-n2ccc(C(F)(F)F)n2)c(CNC(=O)[C@H](C)NC(=O)[C@@H](N)CCc2ccccc2)c1F	IC50	10 to 40 µM
CC(C)N[C@H](CCc1ccccc1)C(=O)N[C@@H](Cc1ccc(F)c(F)c1)C(=O)NCc1ccc2c(N)nccc2c1	IC50	3 to 10 µM
C[C@@H](C(=O)N[C@@H](Cc1ccc(F)c(F)c1)C(=O)NCc1ccc2c(N)nccc2c1)N(C)C	IC50	10 to 40 µM
Nc1nccc2cc(CNC(=O)[C@@H]3CCN3C(=O)[C@H](N)CCc3ccccc3)ccc12	IC50	0.28 to 1 µM
Cn1cncc1C(=O)N[C@@H](Cc1ccc(F)c(F)c1)C(=O)NCc1ccc2c(N)nccc2c1	IC50	10 to 40 µM
C[C@H](NC(=O)[C@@H](CCc1ccccc1)NS(C)(=O)=O)C(=O)NCc1ccc2[nH]cc(Cl)c2c1	IC50	10 to 40 µM
Nc1nccc2cc(CNC(=O)[C@H](Cc3ccc(F)c(F)c3)NC(=O)C[C@@H]3CCCO3)ccc12	IC50	10 to 40 µM
CC(C)(O)CC(=O)N[C@@H](Cc1ccc(F)c(F)c1)C(=O)NCc1ccc2c(N)nccc2c1	IC50	10 to 40 µM
Nc1nccc2cc(CNC(=O)[C@H](Cc3ccc(F)c(F)c3)NC(=O)c3cccc(Cn4cccn4)c3)ccc12	IC50	10 to 40 µM
Nc1nccc2cc(CNC(=O)[C@H](Cc3ccc(F)c(F)c3)NC(=O)c3cscn3)ccc12	IC50	3 to 10 µM
Nc1nccc2cc(CNC(=O)[C@H](Cc3ccc(F)c(F)c3)NC(=O)c3cncnc3)ccc12	IC50	3 to 10 µM

----------
Target: Human Factor XIIa (Homo sapiens)
Construct: purchased Enzyme Research Laboratories
Sequence (P00748 373-615 limits assumed): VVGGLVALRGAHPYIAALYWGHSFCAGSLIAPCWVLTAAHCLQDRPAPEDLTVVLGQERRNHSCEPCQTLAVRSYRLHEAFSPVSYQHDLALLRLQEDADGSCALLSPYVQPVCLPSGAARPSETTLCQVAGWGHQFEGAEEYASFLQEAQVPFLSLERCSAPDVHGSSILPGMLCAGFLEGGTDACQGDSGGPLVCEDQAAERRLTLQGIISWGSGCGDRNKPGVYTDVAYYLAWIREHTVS
Experiment: Factor XIIa inhibitory activity in vitro (fluorogenic substrate H-DPro-Phe-Arg-AFC)
Assay type: biochemical
Conditions: 25° C., class symbols, read-out: Human FXIIa IC50
Below, each entry is listed alongside its reported IC50.

Compound	IC50
CC(C)(O)C(=O)N1C[C@H](c2ccccc2)C[C@H]1C(=O)NCc1ccc2c(N)nccc2c1	10 to 40 µM
Nc1nccc2cc(CNC(=O)[C@H](Cc3ccc(F)c(F)c3)NC(=O)c3ccncn3)ccc12	3 to 10 µM
CCOC(=O)c1cn(-c2ccc(OC)c(F)c2CNC(=O)[C@H](C)NC(=O)[C@@H](CCc2ccccc2)NC(C)C)nn1	10 to 40 µM
C[C@H](NC(=O)[C@H](N)CCc1ccccn1)C(=O)NCc1ccc2c(N)nccc2c1	0.28 to 1 µM
Nc1nccc2cc(CNC(=O)[C@@H]3CCCN(C(=O)[C@H](N)CCc4ccccc4)C3)ccc12	3 to 10 µM
CC(O)[C@H](NC(=O)CN1[C@H](C)CCC[C@@H]1C)C(=O)NCc1ccc2c(N)nccc2c1 (stereo partly shown)	10 to 40 µM
CC1CCCC(C)N1CC(=O)NCCC(=O)NCc1ccc2c(N)nccc2c1 (stereo not shown)	10 to 40 µM
